Reference source for all entries: ChEMBL document CHEMBL3988442

Tested on: Wolbachia pipientis
Method Description: Anti-Wolbachia Cell-Based Screen
Format: functional
Set-up: scale not given: in the data most compounds retested in dose-response had high values
Run Conditions: 5 µM
Hit rate of the full screen: of about 48,000 compounds, about 13,000 (27%) showed an effect of 50% or more. The list shows a part of the results.
Consider the following compounds and their measured Percent Effect readings.
// return numeric value only (unit: %, not printed)

| Compound | Readout Name | Display Unit | Numeric Readout |
| --- | --- | --- | --- |
| CC(c1ccc(Cl)cc1)N1CCN(CCNS(C)(=O)=O)CC1 (stereo not given) | Percent Effect | % | -1.965 |
| CCN1CCN(C2CCN(Cc3nnc(C4CC4)o3)CC2)C1=O | Percent Effect | % | 80.84 |
| CC(=O)N1CCCn2c(nc(CNS(=O)(=O)C3CC3)cc2=O)C1 | Percent Effect | % | -2.795 |
| CC(c1ccc(Cl)cc1)N1CCN(CCCS(C)(=O)=O)CC1 (stereo not given) | Percent Effect | % | -1.134 |
| Cc1ccc(NC2CCN(C(=O)COc3cccnc3)CC2)nn1 | Percent Effect | % | 0.9961 |
| CC(=O)N1[C@H](Cn2cncn2)C[C@@H]2CN(c3ncccn3)CC[C@@H]21 | Percent Effect | % | -1.924 |
| CCc1cc(NCc2cccnc2N2CCCCC2)n2ncnc2n1 | Percent Effect | % | -26.62 |
| COc1ccccc1-c1ccc(C(=O)N2C[C@H]3CC[C@@H]2CN(C)C3)cc1 | Percent Effect | % | 3.488 |
| O=C(CNc1cc(Br)ccc1Br)NC1CCS(=O)(=O)C1 (stereo not given) | Percent Effect | % | -18.44 |
| CCOc1ccc(NC(=O)CN2CCN(c3nccn3C)CC2)cc1 | Percent Effect | % | 10.39 |

Percent Effect in this record for CCN1CCN(C2CCN(Cc3nnc(C(C)C)o3)CC2)C1=O : 147.9

Percent Effect in this record for CN(CCO)Cc1nnc(C2CCN(C[C@H]3[C@@H]4CNC[C@@H]43)CC2)n1C : -4.687

Percent Effect in this record for CC(C)c1nnc(CN2C(=O)OC[C@@H]2C(C)C)o1 : -6.188

Percent Effect in this record for COCCc1noc(-c2ccc(-c3cc[nH]n3)nc2)n1 : 6.666

Percent Effect in this record for Cn1c(CN2CCCCC2)nnc1C1CCN(c2nccc(N)n2)CC1 : -10.02

====

System: Wolbachia pipientis
Method Description: Anti-Wolbachia Cell-Based Screen
Type: functional
Design: scale not given: in the data most compounds retested in dose-response had high values
Run Conditions: 5 µM
Screen size: about 48,000 compounds; about 13,000 (27%) showed an effect of 50% or more. Some of the results follow.
Consider the following compounds and their measured Percent Effect readings.
// return numeric value only (unit: %, not printed)

Study these solved cases before continuing.
| Compound | Percent Effect (%) |
| --- | --- |
| Cc1ccnc(OC[C@]23COC[C@H]2CN(C(=O)c2ccnn2C)C3)n1 | 78.09 |
| CCc1nc2n(n1)CCCC2NC(=O)Nc1cc(OC)ccc1C (stereo not given) | 24.05 |
| CC(=O)N1CCN(Cc2nccs2)CC2(CC(=O)N(C)C2)C1.O=C(O)C(F)(F)F (stereo not given) | 92.61 |
| CC(C)Nc1ccnc(N2Cc3cnc(C(C)(C)C)nc3C2)n1 | 10.33 |
| Cc1oc(C)c(C(=O)NCc2ccccn2)c1C | -10.25 |
| CCS(=O)(=O)N(C)C1CCN(C(=O)c2ccc(Cl)cc2)CC1 | -4.195 |
| O=C(NCCCN1CCOCC1)c1cc(-c2ccco2)[nH]n1 | 0.6677 |
| CCN1CCN(C2CCN(CCOc3ccc(F)cc3)CC2)C1=O | 105.5 |
| O=C(NCCCN1CCOCC1)c1ccc(-c2ccccc2)[nH]c1=O | -4.893 |
| CN1CCN(C2CCN(Cc3ccc(Cl)cc3)CC2)C1=O | -21.74 |

Percent Effect in this record for CS(=O)(=O)NC[C@]12COC[C@H]1CN(C(=O)c1cnccn1)C2 : -1.744

Percent Effect in this record for O=C(c1ccc(Cl)cc1)N1CCC(N2CCOC2=O)CC1 : 107.7

Percent Effect in this record for CN1C[C@H]2CN(Cc3cccc(OC(F)(F)F)c3)CCN2C1=O : -0.9762

====

Consider the following molecules and their measured Percent Effect readings.
System: Wolbachia pipientis
Method Description: Anti-Wolbachia Cell-Based Screen
Assay type: functional
Design: scale not given: in the data most compounds retested in dose-response had high values
Run Conditions: 5 µM
Hit rate of the full screen: of about 48,000 compounds, about 13,000 (27%) showed an effect of 50% or more. This is one part of the list.
// return numeric value only (unit: %, not printed)

Percent Effect in this record for O=C(NCC1CC1)C1=NOC2(CCN(S(=O)(=O)c3cccs3)C2)C1 (configuration not stated) : 6.398

Percent Effect in this record for O=C(NCCN1CCC(c2cccs2)CC1)c1ccc(F)cc1Cl : 122.6

Percent Effect in this record for Cc1ccc(CN2CCc3c(CN4CCCC4)n[nH]c3C2)s1.O=C(O)C(F)(F)F.O=C(O)C(F)(F)F : -6.492

Percent Effect in this record for C[C@@H](NC(=O)c1ccc(Cl)cc1)c1onc(-c2cccnc2)c1C(=O)O.Cl : -10.74

Percent Effect in this record for CSCc1cccc(S(=O)(=O)NCCCn2ccnc2)c1 : -11.24

====

Consider the following compounds and their measured Percent Effect readings.
System: Wolbachia pipientis
Method Description: Anti-Wolbachia Cell-Based Screen
Assay type: functional
Parameters: scale not given: in the data most compounds retested in dose-response had high values
Run Conditions: 5 µM
The whole screen tested about 48,000 compounds, of which about 13,000 (27%) showed an effect of 50% or more. Some of the results follow.
// return numeric value only (unit: %, not printed)

Study these solved cases before continuing.
| Compound | Measured Target | Readout Name | Numeric Readout |
| --- | --- | --- | --- |
| Cc1nc(NC(=O)N2CCCC(C(C)(C)O)C2)nn1C (centres undefined) | Wolbachia pipientis | Percent Effect | 7.598 |
| CC(C)c1cc(NC(CO)CO)n2nccc2n1 | Wolbachia pipientis | Percent Effect | 17.2 |
| CC(=O)Nc1cc(F)c(S(=O)(=O)N(C)CC2CCC2)c(F)c1 | Wolbachia pipientis | Percent Effect | 32.27 |
| COc1ccc(CC(=O)N2CCCC(Cn3cc(CN)nn3)C2)cc1 (centres undefined) | Wolbachia pipientis | Percent Effect | -29.22 |
| Cc1noc(C)c1C(=O)N1C[C@@H]2CCCO[C@@H]2[C@H](N(C)C)C1 | Wolbachia pipientis | Percent Effect | 3.092 |

Percent Effect in this record for COc1cccc(CC2CCCN2CC(N)=O)c1 (centres undefined) : 14.09

Percent Effect in this record for O=C(c1cc(CC2(NCC3CCCCC3)COC2)no1)N1CCCCC1 : 0.2272

Percent Effect in this record for COCCN1CCC2(CC1)CC(CC(N)=O)c1ccc(F)cc12 (centres undefined) : 8.076

Percent Effect in this record for Cc1nc(C)n(CC2CN(CCCc3ccccc3)CCO2)n1 (centres undefined) : -18.17

Percent Effect in this record for CNC(=O)[C@@H]1C[C@@H](n2cc(-c3ccc(Cl)cc3)nn2)CN1 : 111.1

Percent Effect in this record for CCN(CC)C(=O)[C@@H]1C[C@H](n2cc(-c3cccc(OC)c3)nn2)CN1 : -3.277

====

Consider the following compounds and their measured Percent Effect readings.
Tested on: Wolbachia pipientis
Method Description: Anti-Wolbachia Cell-Based Screen
Assay type: functional
Set-up: scale not given: in the data most compounds retested in dose-response had high values
Run Conditions: 5 µM
About 13,000 (27%) of roughly 48,000 compounds showed an effect of 50% or more. The list shows a part of the results.
// return numeric value only (unit: %, not printed)

Study these solved cases before continuing.
| Compound | Measured Target | Display Unit | Percent Effect |
| --- | --- | --- | --- |
| CC(C)Oc1ncccc1CNC(=O)NC1CCOc2ccccc21 (stereo not drawn) | Wolbachia pipientis | % | 99.58 |
| COc1ncccc1CNC(=O)NC1CCOc2ccccc21 (stereo not drawn) | Wolbachia pipientis | % | 3.95 |
| O=C(CNc1ccccc1S(=O)(=O)C(F)F)NCc1ccco1 | Wolbachia pipientis | % | 0.5887 |
| CC1CCCN(c2ccccc2OCC(=O)NC2CC2)C1 (stereo not drawn) | Wolbachia pipientis | % | -2.178 |
| CC1CCN(Cc2cc(=O)[nH]c(=O)[nH]2)CC1 | Wolbachia pipientis | % | -40.44 |

Turning now to a further record.
Percent Effect in this record for Cc1cc(C)n(CC2CN(CC(=O)NC3CCCC3)CCO2)n1 (stereo not drawn) : -2.568

====

Test system: Wolbachia pipientis
Method Description: Anti-Wolbachia Cell-Based Screen
Type: functional
Set-up: scale not given: in the data most compounds retested in dose-response had high values
Run Conditions: 5 µM
Out of some 48,000 compounds screened, about 13,000 (27%) showed an effect of 50% or more. The list shows a part of the results.
Readout Name: Percent Effect (%)
// return numeric value only (unit: %, not printed)

Study these solved cases before continuing.
| Sample Smiles | Percent Effect [%] |
| --- | --- |
| Cc1ncnc2c1CCN(CC(=O)N(C)C)CC2.O=C(O)C(F)(F)F | 112 |
| Cc1ncnc2c1CCN(C(=O)N(C)C)CC2 | 95.78 |
| CC(=O)NCCc1nc(C(C)C)nn1-c1ccncc1C | -7.062 |
| CN(C)CCNc1cc(-c2ncccc2Cl)c2cc[nH]c2n1 | -5.947 |

Turning now to a further record.
Percent Effect in this record for Cc1ncnc2c1CCN(C(=O)c1ccnnc1)CC2 : -1.373
